meta.source: paper PMC8009520

assayed target: rat isoform of TRPM8 channels (Rattus norvegicus, UniProt Q8R455)
Construct: expressed in transfected cells
Sequence (Q8R455 whole entry, canonical isoform): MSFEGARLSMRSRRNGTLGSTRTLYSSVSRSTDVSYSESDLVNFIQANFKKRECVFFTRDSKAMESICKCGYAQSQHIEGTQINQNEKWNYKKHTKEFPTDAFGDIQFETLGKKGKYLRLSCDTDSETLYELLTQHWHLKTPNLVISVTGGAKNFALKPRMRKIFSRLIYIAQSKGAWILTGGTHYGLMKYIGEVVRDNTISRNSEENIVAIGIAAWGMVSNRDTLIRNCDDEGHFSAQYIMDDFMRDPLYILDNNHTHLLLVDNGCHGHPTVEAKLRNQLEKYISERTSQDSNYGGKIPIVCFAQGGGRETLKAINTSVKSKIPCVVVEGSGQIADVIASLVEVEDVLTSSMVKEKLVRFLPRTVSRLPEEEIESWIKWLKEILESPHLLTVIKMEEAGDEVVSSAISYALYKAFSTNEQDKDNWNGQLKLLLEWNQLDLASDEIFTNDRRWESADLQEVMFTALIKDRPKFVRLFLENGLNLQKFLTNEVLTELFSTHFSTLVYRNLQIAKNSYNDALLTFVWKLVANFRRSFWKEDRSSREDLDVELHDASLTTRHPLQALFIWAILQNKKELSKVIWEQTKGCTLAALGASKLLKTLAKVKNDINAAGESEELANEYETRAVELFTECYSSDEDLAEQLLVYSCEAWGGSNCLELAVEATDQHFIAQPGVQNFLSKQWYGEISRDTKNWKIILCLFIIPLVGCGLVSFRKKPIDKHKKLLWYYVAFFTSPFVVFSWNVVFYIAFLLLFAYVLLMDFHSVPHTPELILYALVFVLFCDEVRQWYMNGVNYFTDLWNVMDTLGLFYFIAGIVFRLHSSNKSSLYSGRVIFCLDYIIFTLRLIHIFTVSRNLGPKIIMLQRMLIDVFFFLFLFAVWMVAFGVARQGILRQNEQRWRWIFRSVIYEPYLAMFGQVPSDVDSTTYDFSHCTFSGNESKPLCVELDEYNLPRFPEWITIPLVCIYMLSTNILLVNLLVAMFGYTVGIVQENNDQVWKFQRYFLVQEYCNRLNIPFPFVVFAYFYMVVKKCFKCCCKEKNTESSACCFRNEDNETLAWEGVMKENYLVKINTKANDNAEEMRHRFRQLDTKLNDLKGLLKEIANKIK
procedure summary: Ca2+ fluorimetric assay, menthol-activated channel
Assay type: cell-based
assay context: Table 2, Ca2+ fluorimetric assay; read-out: IC50 Ca2+
Quick reference for IC50 among some molecules

| molecule | assayed target | inequality symbol | IC50 / nM |
| --- | --- | --- | --- |
| O=C1[C@@H]2Cc3c([nH]c4ccccc34)[C@@H](c3ccc(Cl)cc3)N2C(=O)N1Cc1ccc(F)cc1 [31a] | rat isoform of TRPM8 channels (Rattus norvegicus, UniProt Q8R455) | > | 30000 |
| O=C(NCc1ccc(F)cc1)[C@@H]1Cc2c([nH]c3ccccc23)CN1 | rat isoform of TRPM8 channels (Rattus norvegicus, UniProt Q8R455) | = | 900 |
| O=C1[C@@H]2Cc3c([nH]c4ccccc34)[C@H](c3ccc(F)cc3)N2C(=O)N1c1cccc(C(F)(F)F)c1 [36b] | rat isoform of TRPM8 channels (Rattus norvegicus, UniProt Q8R455) | = | 200 |
| COC(=O)CC[C@H]1N[C@H](C(=O)NCc2ccc(F)cc2)Cc2c1[nH]c1ccccc21 [11a] | rat isoform of TRPM8 channels (Rattus norvegicus, UniProt Q8R455) | = | 1100 |
| O=C(O)CC[C@H]1N[C@H](C(=O)NCc2ccc(F)cc2)Cc2c1[nH]c1ccccc21 [12a] | rat isoform of TRPM8 channels (Rattus norvegicus, UniProt Q8R455) | = | 5000 |
| O=C1N[C@H](Cc2ccccc2)C(=O)N2Cc3[nH]c4ccccc4c3C[C@@H]12 | rat isoform of TRPM8 channels (Rattus norvegicus, UniProt Q8R455) | = | 400 |
